The origin of these recorded values is patent US20080076824A1.

experiment: Cytotoxicity (CC50) in MT-4 cells; assay type: cell-based; settings: human, MT-4 cells
Counter-ions that a name gives are not always drawn.
metric name: CC50 (µM)
Answers are plain numbers, in µM.

CN1C(=O)C(C)(C)NNC1=S    906
CN1C(=O)C2(CCCCC2)NNC1=S    455

API: the following record is the query input.
Sure, the documented CC50 for NC(=O)C(N)O (stereo not drawn) [AlphaHGA, α-Hydroxy-glycinamide hydrochloride] is 372

----------
test system: HIV-2 (ROD); test: microbe, parasite or virus in culture; assay type: cell-based; conditions: Human immunodeficiency virus 2, CCRF-CEM; Table 19; read-out: EC50 (CEM) HIV-2 (ROD)
Exercise: state measured pEC50 for each of the compounds provided.
Answers are plain numbers, as −log10 of the molar value.

CN1C(=O)C2(CCCCC2)NNC1=S    4.32

With those in mind, consider the next compound.
For this compound ( CN1C(=O)C(C)(C)NNC1=S ), measured pEC50 is 4.19

----------
assay: Microdose study of 14C-AlphaHGA in healthy volunteers, plasma pharmacokinetics (AMS); assay type: in vivo, human; settings: plasma, Period 1, Max
Structures can show the parent of a compound that is named as a salt.
metric name: Cmax

// Cmax value for NC(=O)C(N)O (stereo not drawn) [AlphaHGA, α-Hydroxy-glycinamide hydrochloride] : 0.0668 nM

----------
test system: Sindbis virus; conditions: read-out: Minimum inhibitory concentration Sindbis virus; Vero; reduces virus-induced cytopathogenicity by 50%
Residues, ends and D or L forms follow the SMILES beside them.
Could you please report measured EC50 for the items listed next?

NCC(=O)N1CCC[C@H]1C(=O)NCC(N)=O [GPG-NH2, glycylprolylglycinamide] (H-Gly-Pro-Gly-NH2)    > 400 µM

Okay, next one:
Given item NCC(N)=O [G-NH2, glycinamide] , the value recorded as its EC50 is > 2000 µM

----------
system: HIV-2 (ROD); assay: microbe, parasite or virus in culture; type: cell-based; settings: CEM cell cultures, syncytia formation, Table 1; read-out: EC50 HIV-2 ROD
Residues, ends and D or L forms follow the SMILES beside them.
metric name: pEC50
One number for each entry, as −log10 of the molar value.

NCC(N)=O [G-NH2, glycinamide]    4.46

Log: HIV-2 (ROD), compound NCC(=O)N1CCC[C@H]1C(=O)NCC(N)=O [GPG-NH2, glycylprolylglycinamide] (H-Gly-Pro-Gly-NH2) , pEC50 = 4.52

----------
tested on: HIV-1 (IIIB); test: microbe, parasite or virus in culture; details: Human immunodeficiency virus 1, IIIB, MT4, read-out: EC50 (MT-4) HIV-1(IIIB)
pEC50: −log10 of the molar value. Counter-ions that a name gives are not always drawn.
metric name: pEC50

Example compounds with recorded pEC50:
CN1C(=O)C2(CCCCC2)NNC1=S [Formula M]    < 3.05
CN1C(=O)C(C)(C)NNC1=S [Formula K]    < 3.00

Switching to the query record.
Given the compound NC(=O)C(N)O (stereo not drawn) [AlphaHGA, α-Hydroxy-glycinamide hydrochloride] and test system HIV-1 (IIIB), the measured pEC50 is ≤ 3.30

----------
tested on: HIV-1 (IIIB); test: microbe, parasite or virus in culture; settings: Human immunodeficiency virus 1, IIIB, C8166, read-out: EC50 (C8166) HIV-1 (IIIB), Table 19
metric name: pEC50
Give bare numbers, as −log10 of the molar value.

HIV-1 (IIIB) pEC50 of CN1C(=O)C(C)(C)NNC1=S [Formula K] is 3.46
